assay: Pharmacokinetics of clopidogrel and its metabolites with and without ritonavir; type: in vivo, human; settings: human, plasma, po, 300 mg, AUC0‐4h, after clopidogrel 300 mg oral; clopidogrel and ritonavir phase; geometric mean (geometric CV)
READOUT_LABEL: AUC (ng·h/mL)
Answer in ng·h/mL, number only, no unit symbol.

Q. Any idea what AUC was measured for COC(=O)[C@H](c1ccccc1Cl)N1CCc2sccc2C1 [Clopidogrel, clopidogrel, reference compound] ?
A. 6.44

###

assay: Pharmacokinetics of clopidogrel and its metabolites with and without ritonavir; assay type: in vivo, human; conditions: human, plasma, po, 300 mg, AUC0‐∞, after clopidogrel 300 mg oral; clopidogrel and ritonavir phase; geometric mean (geometric CV)
READOUT_LABEL: AUC (ng·h/mL)
Report only the number, with the unit ng·h/mL understood.

Q. Form field: reported AUC of COC(=O)[C@H](c1ccccc1Cl)N1CCc2sccc2C1 [Clopidogrel, clopidogrel, reference compound]
A. 8.14
